# Lookup of reported DC50 keyed by entry
Target: ER (Homo sapiens (Human))
Experiment: In-cell western (ICW) ER degradation assay in T47D cells
Assay type: cell-based
Details: ER degradation, 16 hrs

# molecule, result type, result
rows = [
    ("O=C1CCC(NC(=O)c2ccc(N3CCC(CN4CCN(c5ccc([C@H]6c7ccc(O)cc7OC[C@H]6c6ccccc6)cc5)CC4)CC3)cn2)C(=O)N1 (stereo partly drawn) [Compound A129]", "DC50", "10 to 100 nM"),
]

Query: API: value(readout=DC50, system=ER (Homo sapiens (Human))) for record O=C1CCC(N2Cc3cc4c(cc3C2=O)OCC42CCN(CC3CC4(CCN(c5ccc([C@H]6c7ccc(O)cc7OC[C@H]6c6ccccc6)cn5)CC4)C3)CC2)C(=O)N1 (stereo partly drawn)
Reply: < 1 nM

Query: API: value(readout=DC50, system=ER (Homo sapiens (Human))) for record O=C1CC[C@@H](N2Cc3c(ccc4c3OCC43CCN(CC4CCC5(CC4)CN(c4ccc([C@H]6c7ccc(O)cc7OC[C@H]6c6ccccc6)cc4)C5)CC3)C2=O)C(=O)N1
Reply: < 1 nM

====

# Lookup of reported DC50 keyed by entry
Target: ER (Homo sapiens (Human))
Assay: In-cell western (ICW) ER degradation assay in T47D cells
Type: cell-based
Details: ER degradation, 16 hrs

Example entries and their recorded answers appear below.
# compound, subject of test, result
records = [
    ("O=C1CCC(N2Cc3cc(N4CCN(CC5CCN(c6ccc([C@@H]7c8ccc(O)cc8OC[C@@H]7c7ccccc7)cc6)CC5)CC4)ccc3C2=O)C(=O)N1 (single isomer, unassigned)", "ER (Homo sapiens (Human))", "< 1 nM"),
    ("O=C1CCC(N2C(=O)c3cc4c(cc3C2=O)CN(CC(=O)N2CCC3(CC2)CN(c2ccc([C@@H]5c6ccc(O)cc6OC[C@@H]5c5ccccc5)cc2)C3)C4)C(=O)N1 (single isomer, unassigned)", "ER (Homo sapiens (Human))", "< 1 nM"),
    ("COc1cc(N2CCC(CN3CCC4(CC3)COc3cc5c(cc34)CN(C3CCC(=O)NC3=O)C5=O)CC2)ccc1[C@H]1c2ccc(O)cc2OC[C@H]1c1ccccc1 (stereo partly drawn)", "ER (Homo sapiens (Human))", "< 1 nM"),
]

Query: Look up DC50: O=C1CC[C@@H](Nc2ccc(C3CCN(CC4CCC5(CC4)CN(c4ccc([C@@H]6c7ccc(O)cc7OC[C@@H]6c6ccccc6)cc4)C5)CC3)cc2)C(=O)N1 (single isomer, unassigned)
Reply: 1 to 10 nM

Query: Look up DC50: O=C1CCC(N2Cc3c(ccc4c3OCC43CCN(CC4CCC5(CC4)CN(c4ccc([C@@H]6c7ccc(O)cc7OC[C@@H]6c6ccccc6)cc4)C5)CC3)C2=O)C(=O)N1 (stereo partly drawn)
Reply: < 1 nM

Query: Look up DC50: O=C1CC[C@@H](Nc2ccc(C3CCN(C[C@H]4COC5(CCN(c6ccc([C@H]7c8ccc(O)cc8OC[C@H]7c7ccccc7)cc6)CC5)C4)CC3)c(F)c2)C(=O)N1 (single isomer, unassigned)
Reply: 1 to 10 nM

Query: Look up DC50: O=C1CC[C@@H](NC(=O)c2ccc(N3CCN(CC4COC5(CCN(c6ccc([C@H]7c8ccc(O)cc8OC[C@H]7c7ccccc7)cc6)CC5)C4)CC3)cn2)C(=O)N1 (single isomer, unassigned)
Reply: < 1 nM

Query: Look up DC50: O=C1CCC(N2Cc3cc(N4CCN(CC5CC6(CCN(c7ccc([C@@H]8c9ccc(O)cc9OC[C@@H]8c8ccccc8)cn7)CC6)C5)CC4)ccc3C2=O)C(=O)N1 (single isomer, unassigned) [Compound A92]
Reply: < 1 nM

Query: Look up DC50: COc1cc(N2CCC(CN3CCN4c5ccc(C(=O)NC6CCC(=O)NC6=O)nc5OC[C@H]4C3)CC2)ccc1C1c2ccc(O)cc2OCC1c1ccccc1 (stereo in doubt)
Reply: < 1 nM

====

Target: ER (Homo sapiens (Human))
Experiment: In-cell western (ICW) ER degradation assay in T47D cells
Type: cell-based
Settings: ER degradation, 16 hrs
result type: DC50

Example entries and their recorded answers appear below.
# compound, DC50
measured = [
    ("O=C1CCC(N2C(=O)c3cc4c(cc3C2=O)CN(C(=O)C2CCN(C3CCN(c5ccc([C@@H]6c7ccc(O)cc7OC[C@@H]6c6ccccc6)cc5)CC3)CC2)C4)C(=O)N1 (single isomer, unassigned) [Compound A79]", "< 1 nM"),
    ("O=C1CCC(N2Cc3cc(N4CCN(CC5CC6(CCN(c7ccc([C@@H]8c9ccc(O)cc9OC[C@@H]8c8ccccc8)cn7)CC6)C5)CC4)ccc3C2=O)C(=O)N1 (single isomer, unassigned) [Compound A67]", "10 to 100 nM"),
    ("O=C1CCC(N2Cc3cc4c(cc3C2=O)OCC42CCN(CC3CCN(c4ccc([C@@H]5c6ccc(O)cc6OC[C@@H]5c5ccccc5)cc4)CC3)CC2)C(=O)N1 (stereo partly drawn) [Compound A86]", "< 1 nM"),
    ("O=C1CCC(N2Cc3cc(N4CCN(CC5CC6(CCN(c7ccc([C@@H]8c9ccc(O)cc9OC[C@@H]8c8ccccc8)cn7)CC6)C5)CC4)ccc3C2=O)C(=O)N1 (single isomer, unassigned) [Compound A68]", "1 to 10 nM"),
    ("O=C1CC[C@@H](N2Cc3cc4c(cc3C2=O)OC[C@H]2CN(CC3CC5(CCN(c6ccc([C@@H]7c8ccc(O)cc8OC[C@@H]7c7ccccc7)cc6)CC5)C3)CCN42)C(=O)N1 [Compound A95]", "1 to 10 nM"),
    ("COc1cc(N2CCC(CN3CCN(c4ccc(C(=O)NC5CCC(=O)NC5=O)nc4)CC3)CC2)ccc1[C@H]1c2ccc(O)cc2OC[C@H]1c1ccccc1 (single isomer, unassigned) [Compound A124]", "< 1 nM"),
    ("O=C1CC[C@@H](N2Cc3cc4c(cc3C2=O)OC[C@@H]2CN(C[C@@H]3COC5(CCN(c6ccc([C@H]7c8ccc(O)cc8OC[C@H]7c7ccccc7)cc6)CC5)C3)CCN42)C(=O)N1 [Compound A151]", "< 1 nM"),
    ("O=C1CCC(N2Cc3cc4c(cc3C2=O)OC[C@@H]2CN(CC3CCC5(CC3)CN(c3ccc([C@@H]6c7ccc(O)cc7OC[C@@H]6c6ccccc6)cc3)C5)CCN42)C(=O)N1 (single isomer, unassigned) [Compound A58]", "1 to 10 nM"),
]

Query: Look up DC50: COc1cc(N2CCC3(CC2)CC(CN2CCN4c5ccc6c(c5OC[C@@H]4C2)CN([C@@H]2CCC(=O)NC2=O)C6=O)C3)c(F)cc1[C@@H]1c2ccc(O)cc2OC[C@@H]1c1ccccc1 (single isomer, unassigned) [Compound A125]
Reply: < 1 nM

====

Molecular target: ER (Homo sapiens (Human), UniProt P03372)
Sequence (P03372 whole entry): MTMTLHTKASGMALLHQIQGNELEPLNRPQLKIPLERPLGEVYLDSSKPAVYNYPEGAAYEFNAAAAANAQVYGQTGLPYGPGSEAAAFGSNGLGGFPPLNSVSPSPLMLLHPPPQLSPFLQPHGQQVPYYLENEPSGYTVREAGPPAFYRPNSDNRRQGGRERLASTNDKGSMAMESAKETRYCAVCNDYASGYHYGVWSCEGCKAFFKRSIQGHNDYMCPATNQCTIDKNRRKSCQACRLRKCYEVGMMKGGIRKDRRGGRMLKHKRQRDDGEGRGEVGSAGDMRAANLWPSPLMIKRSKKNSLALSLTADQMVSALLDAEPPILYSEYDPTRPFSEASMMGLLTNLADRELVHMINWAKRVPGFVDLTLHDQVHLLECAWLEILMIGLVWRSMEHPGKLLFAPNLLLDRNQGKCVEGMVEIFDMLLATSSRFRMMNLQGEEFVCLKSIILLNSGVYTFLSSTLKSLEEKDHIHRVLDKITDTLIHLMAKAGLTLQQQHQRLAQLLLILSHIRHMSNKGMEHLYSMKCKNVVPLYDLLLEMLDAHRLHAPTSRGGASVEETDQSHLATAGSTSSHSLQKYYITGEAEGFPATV
Assay: In-cell western (ICW) ER degradation assay in T47D cells
Format: cell-based
Settings: ER degradation, 16 hrs
result type: DC50

# molecule, DC50
measured = [
    ("O=C1CCN(c2ccc(N3CCN(CC4CCN(c5ccc([C@@H]6c7ccc(O)cc7OC[C@@H]6c6ccccc6)cc5)CC4)CC3)cc2)C(=O)N1 (single isomer, unassigned)", "1 to 10 nM"),
    ("COc1cc(N2CCC(CN3CCN4c5ccc6c(c5OC[C@@H]4C3)CN([C@@H]3CCC(=O)NC3=O)C6=O)CC2)c(F)cc1[C@@H]1c2ccc(O)cc2OC[C@@H]1c1ccccc1 (single isomer, unassigned)", "< 1 nM"),
    ("COc1cc(N2CCC(CN3CCC4(CC3)COc3c4ccc4c3CN(C3CCC(=O)NC3=O)C4=O)CC2)ccc1[C@H]1c2ccc(O)cc2OC[C@H]1c1ccccc1 (some centres unmarked)", "< 1 nM"),
    ("O=C1CCC(N2Cc3c(ccc4c3OC[C@H]3CN(CC5CC6(CCN(c7ccc([C@@H]8c9ccc(O)cc9OC[C@@H]8c8ccccc8)cn7)CC6)C5)CCN43)C2=O)C(=O)N1 (single isomer, unassigned) [Compound A65]", "1 to 10 nM"),
]

# ---- query molecule ----
Query: Look up DC50: O=C1CCC(Nc2ccc(C34CCN(CC5COC6(CCN(c7ccc([C@@H]8c9ccc(O)cc9OC[C@@H]8c8ccccc8)cc7F)CC6)C5)CC3C4(F)F)cc2)C(=O)N1 (some centres unmarked)
Reply: 1 to 10 nM

====

# Lookup of reported DC50 keyed by entry
Target: ER (Homo sapiens (Human), UniProt P03372)
Test: In-cell western (ICW) ER degradation assay in MCF-7 cells
Format: cell-based
Details: ER degradation, MCF7, 16 hrs

Query: API: value(readout=DC50, system=ER (Homo sapiens (Human), UniProt P03372)) for record COc1cc(C(=O)N[C@@H]2CCC(=O)NC2=O)ncc1N1CCN(CC2CCC3(CC2)CN(c2ccc([C@H]4c5ccc(O)cc5OC[C@H]4c4ccccc4)cc2)C3)CC1 (single isomer, unassigned)
Reply: 10 to 100 nM

Query: API: value(readout=DC50, system=ER (Homo sapiens (Human), UniProt P03372)) for record O=C1CCC(N2Cc3c(ccc4c3OC[C@H]3CN(CC5CCN(c6ccc([C@@H]7c8ccc(O)cc8OC[C@@H]7c7ccccc7)cc6F)CC5)CCN43)C2=O)C(=O)N1 (single isomer, unassigned)
Reply: 1 to 10 nM

Query: API: value(readout=DC50, system=ER (Homo sapiens (Human), UniProt P03372)) for record COc1cc(C(=O)NC2CCC(=O)NC2=O)ncc1N1CCN(CC2CC3(CCN(c4ccc([C@H]5c6ccc(O)cc6OC[C@H]5c5ccccc5)cc4)CC3)C2)CC1 (single isomer, unassigned)
Reply: < 1 nM

Query: API: value(readout=DC50, system=ER (Homo sapiens (Human), UniProt P03372)) for record O=C1CCC(N2Cc3cc4c(cc3C2=O)OC[C@@H]2CN(CC3CCN(c5ccc([C@@H]6c7ccc(O)cc7OC[C@@H]6c6ccccc6)cc5)CC3)CCN42)C(=O)N1 (single isomer, unassigned)
Reply: 1 to 10 nM

Query: API: value(readout=DC50, system=ER (Homo sapiens (Human), UniProt P03372)) for record O=C1CCC(Nc2ccc(C34CCN(CC5COC6(CCN(c7ccc([C@H]8c9ccc(O)cc9OC[C@H]8c8ccccc8)cc7F)CC6)C5)CC3C4(F)F)cc2)C(=O)N1 (some centres unmarked)
Reply: > 100 nM
